Tgt: Virion infectivity factor (Human immunodeficiency virus type 1 group M subtype B (isolate BH10)) + Virion infectivity factor (Human immunodeficiency virus type 1 group M subtype B (isolate BRU/LAI)) + Virion infectivity factor (Human immunodeficiency virus type 1 group M subtype B (isolate PCV12)) + Virion infectivity factor (Human immunodeficiency virus type 1 group M subtype B (isolate HXB2)) + DNA dC->dU-editing enzyme APOBEC-3G (Homo sapiens) (UniProt P69720+P69721+P69722+P69723+Q9HC16)
Method Description: inhibitors of Vif binding to APOBEC3G peptide, primary screen, biochemical, TR-FRET, GST-Vif 1-94, biotin-A3G peptide, dose response retest (AID 1117319);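 also: Vif residues 1-94 fused to GST binding biotinylated APOBEC3G peptide 110-148; 0% = full assay without inhibitor and 100% = GST in place of GST-Vif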
Condition Parameters: hits give high values
The whole screen tested about 260,000 compounds, of which about 1,500 (0.58%) were called active. Inconclusive results (about 5%) are left out. These entries were drawn from the full list. Potency and affinity values are given separately.
Provide the recorded inhibition for the entries that follow.
Answers are plain numbers, in %.

Below are worked cases with known answers.
Smi	Outcome Measure	Value Units	Observed Measurement
O=C(C1CCCCC1)N1CCc2ccccc21	inhibition	%	3.73
O=C(CCN1CCN(S(=O)(=O)c2ccc(Cl)cc2)CC1)Nc1ccc(F)cc1	inhibition	%	1.22
O=C(O)c1ccc(CNCc2cccc(OCc3ccc(F)cc3)c2)cc1	inhibition	%	-2.79

### Prompt Look up inhibition for this compound: COc1ccc(/C=N/NC(=O)c2cccc([N+](=O)[O-])c2)cc1OS(=O)(=O)c1ccccc1
### Response 2.68

----------
Tgt: Virion infectivity factor (Human immunodeficiency virus type 1 group M subtype B (isolate BH10)) + Virion infectivity factor (Human immunodeficiency virus type 1 group M subtype B (isolate BRU/LAI)) + Virion infectivity factor (Human immunodeficiency virus type 1 group M subtype B (isolate PCV12)) + Virion infectivity factor (Human immunodeficiency virus type 1 group M subtype B (isolate HXB2)) + DNA dC->dU-editing enzyme APOBEC-3G (Homo sapiens) (UniProt P69720+P69721+P69722+P69723+Q9HC16)
Method Description: inhibitors of Vif binding to APOBEC3G peptide, primary screen, biochemical, TR-FRET, GST-Vif 1-94, biotin-A3G peptide, dose response retest (AID 1117319)
Condition Parameters: hits give high values
In all, about 260,000 compounds went through this assay and about 1,500 (0.58%) were called active. About 5% were inconclusive and are not listed. The list is a sample of the results. Entries with a potency or affinity are not part of this list.
Outcome Measure: inhibition (%)
Answers are plain numbers, in %.

Below are worked cases with known answers.
Compound	Value Units	inhibition
O=[N+]([O-])c1cc(F)c2cccnc2c1O	%	18.9
Cc1ccc(-c2ccccc2)n1-c1ccc(C(=O)O)cc1	%	-4.6
CCC(C)N(NC(C)=O)c1nc(Cl)nc(NC(C)(C)C)n1 (centres undefined)	%	7.21
CCc1cccc(CC)c1NC(=O)C(NS(=O)(=O)c1cccs1)c1ccccc1 (centres undefined)	%	9.9

Would you mind giving inhibition for every compound in the list below?
1. Cc1cc(C)n(Cc2ccc(C(=O)O)cc2)n1
2. O=C(O)CCS(=O)(=O)Cc1ccccc1Cl
3. Cc1cc(C(=O)O)ccc1-n1c(C)cc(C=C2C(=O)c3ccccc3C2=O)c1C
4. CCOC(=O)c1ccc(-c2c(C)cc3oc(=O)cc(-c4ccccc4)c3c2C)cc1
5. CCOC(=O)c1cnc2c(C(=O)OCC)cnn2c1N
6. Cc1ccc(CNC(=O)COC(=O)Cn2nc(C)c([N+](=O)[O-])c2C)cc1
7. Cc1ccnc(NC(=O)CCNC(=O)c2ccc(Cl)cc2)c1

### Response
1. -1.33
2. 3.96
3. -10.7
4. -7.8
5. 4.51
6. 2.03
7. -5.97

----------
Provide the recorded inhibition for the entries that follow.
Tgt: Virion infectivity factor (Human immunodeficiency virus type 1 group M subtype B (isolate BH10)) + Virion infectivity factor (Human immunodeficiency virus type 1 group M subtype B (isolate BRU/LAI)) + Virion infectivity factor (Human immunodeficiency virus type 1 group M subtype B (isolate PCV12)) + Virion infectivity factor (Human immunodeficiency virus type 1 group M subtype B (isolate HXB2)) + DNA dC->dU-editing enzyme APOBEC-3G (Homo sapiens) (UniProt P69720+P69721+P69722+P69723+Q9HC16)
Method Description: inhibitors of Vif binding to APOBEC3G peptide, primary screen, biochemical, TR-FRET, GST-Vif 1-94, biotin-A3G peptide, dose response retest (AID 1117319);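 also: Vif residues 1-94 fused to GST binding biotinylated APOBEC3G peptide 110-148; 0% = full assay without inhibitor and 100% = GST in place of GST-Vif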
Condition Parameters: hits give high values
Screen size: about 260,000 compounds; about 1,500 (0.58%) were called active. About 5% were inconclusive and are not listed. These entries were drawn from the full list. Measured potencies and affinities stand elsewhere.
Give bare numbers, in %.

Below are worked cases with known answers.
Molecule	Value Units	inhibition
CCCOc1ccccc1C1NC(=O)NC(C)=C1C(=O)OCc1ccccc1 (stereo not given)	%	-9.5
COc1cccc(NC(=O)CC(C)=O)c1	%	3.45

Would you mind giving inhibition for every molecule in the list below?
1. NC(=O)CCc1c[nH]c2ccccc12
2. Cc1ccc(C)c(CSc2nnc(C)c(=O)[nH]2)c1
3. CC1(C)CC(=O)C(N=Nc2ccc(S(=O)(=O)N3CCOCC3)cc2)=C(O)C1
4. C=C(C)CNC(=S)NNC(=O)c1ccncc1

### Response
14.6
-5.37
4.95
-3.17

Would you mind giving inhibition for every molecule in the list below?
1. O=C(Nc1ccc(Br)cc1)C1CCN(C(=O)c2ccc(F)cc2)CC1
2. COc1ccc(S(=O)CC(=O)Nc2ccccc2Cl)cc1 (stereo not given)
3. O=C(O)c1cccc(N=NN2CCOCC2)c1
4. Cc1c(C(=O)c2ccc([N+](=O)[O-])cc2)c(=O)n(C)c(=O)n1C
5. COc1cccc(NC(=S)NCCc2ccccn2)c1

### Response
-10.6
-2.59
0.39
-3.13
-0.67

----------
Tgt: Virion infectivity factor (Human immunodeficiency virus type 1 group M subtype B (isolate BH10)) + Virion infectivity factor (Human immunodeficiency virus type 1 group M subtype B (isolate BRU/LAI)) + Virion infectivity factor (Human immunodeficiency virus type 1 group M subtype B (isolate PCV12)) + Virion infectivity factor (Human immunodeficiency virus type 1 group M subtype B (isolate HXB2)) + DNA dC->dU-editing enzyme APOBEC-3G (Homo sapiens) (UniProt P69720+P69721+P69722+P69723+Q9HC16)
Method Description: inhibitors of Vif binding to APOBEC3G peptide, primary screen, biochemical, TR-FRET, GST-Vif 1-94, biotin-A3G peptide, dose response retest (AID 1117319);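 also: Vif residues 1-94 fused to GST binding biotinylated APOBEC3G peptide 110-148; 0% = full assay without inhibitor and 100% = GST in place of GST-Vif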
Condition Parameters: hits give high values
Out of some 260,000 compounds screened, about 1,500 (0.58%) were called active. Another 5% or so got no clear call; they are omitted. The list is a sample of the results. Entries with a potency or affinity are not part of this list.
Outcome Measure: inhibition

Would you mind giving inhibition for every compound in the list below?
1. COc1cc2c(cc1O)C(Cc1ccc(O)cc1)NCC2 (configuration not stated)
2. CCc1cccc(NC(=O)CCSCCC(=O)Nc2cccc(CC)c2)c1
3. CC1Cc2c([nH]c3ccccc23)C(=O)N1 (configuration not stated)

### Response
1. -2.34% (inactive)
2. -3.74% (inactive)
3. 0.31% (inactive)

Would you mind giving inhibition for every compound in the list below?
1. COc1ccccc1N1CCN(C(=O)c2sc3nc(-c4ccccc4)cn3c2C)CC1
2. NC(=O)COC(=O)c1ccc(C(=O)C(=O)c2ccccc2)cc1
3. COc1c(O)c(O)c2oc(-c3ccccc3)cc(=O)c2c1OC
4. NC(=S)N=Nc1c(O)[nH]c2ccc(F)cc12

### Response
1. -3.37% (inactive)
2. 4.49% (inactive)
3. -3.24% (inactive)
4. 14.4% (inactive)

Would you mind giving inhibition for every compound in the list below?
1. O=C(C(=NNc1ccccc1)c1ccccc1)c1ccccc1
2. COc1cc2c(cc1OC)C(Cc1ccc(O)cc1)NCC2 (configuration not stated)
3. Cc1ccc(Cn2nnnc2CN2CCC(O)(c3ccccc3F)CC2)cc1
4. Cc1c(Cl)cccc1NC(=O)CCCCCN1C(=O)CCC1=O
5. CCOC(=O)Cc1cc(=O)n2[nH]c(-c3ccccc3)cc2n1
6. COc1ccc(CNc2nc(NCc3ccc(OC)c(OC)c3)n(C(=O)c3cccs3)n2)cc1OC
7. COc1ccc(-c2nnc(Nc3ccc(S(=O)(=O)Nc4nccs4)cc3)c3ccccc23)cc1
8. CC(NC(=O)C(=S)N1CCN(C)CC1)c1ccccc1 (configuration not stated)

### Response
1: -6.13% (inactive); 2: 16.4% (inactive); 3: 20% (inactive); 4: -0.64% (inactive); 5: 3.98% (inactive); 6: 13.3% (inactive); 7: 12.6% (inactive); 8: 0.7% (inactive)

----------
Provide the recorded inhibition for the entries that follow.
Tgt: Virion infectivity factor (Human immunodeficiency virus type 1 group M subtype B (isolate BH10)) + Virion infectivity factor (Human immunodeficiency virus type 1 group M subtype B (isolate BRU/LAI)) + Virion infectivity factor (Human immunodeficiency virus type 1 group M subtype B (isolate PCV12)) + Virion infectivity factor (Human immunodeficiency virus type 1 group M subtype B (isolate HXB2)) + DNA dC->dU-editing enzyme APOBEC-3G (Homo sapiens) (UniProt P69720+P69721+P69722+P69723+Q9HC16)
Method Description: inhibitors of Vif binding to APOBEC3G peptide, primary screen, biochemical, TR-FRET, GST-Vif 1-94, biotin-A3G peptide, dose response retest (AID 1117319);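 also: Vif residues 1-94 fused to GST binding biotinylated APOBEC3G peptide 110-148; 0% = full assay without inhibitor and 100% = GST in place of GST-Vif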
Condition Parameters: hits give high values
In all, about 260,000 compounds went through this assay and about 1,500 (0.58%) were called active. Roughly 5% stayed inconclusive and do not appear here. These entries were drawn from the full list. Measured potencies and affinities stand elsewhere.
One number for each entry, in %.

Compound	inhibition / %
C/C=C(/C)C(=O)Nc1cccc(C2=NOC3(C2)C[C@@H](C(N)=O)N(C(=O)CCCCC)C3)c1 (some centres undefined)	4.38
CCC(=O)Nc1cccc(C2=NOC3(C2)C[C@@H](C(N)=O)N(C(=O)c2cc([N+](=O)[O-])cc([N+](=O)[O-])c2)C3)c1 (some centres undefined)	9.27

Would you mind giving inhibition for every compound in the list below?
1. COc1ccccc1C(=O)n1nc(-c2ccc(Cl)cc2)nc1N
2. CCC(=O)Nc1cccc(C2=NOC3(C2)C[C@@H](C(N)=O)N(C(=O)COc2ccc(Cl)cc2)C3)c1 (some centres undefined)

### Response
1: 20.4; 2: 1.74

From: PubChem BioAssay AID1117319
